B1: library; numbered along this chain (parent)
chain: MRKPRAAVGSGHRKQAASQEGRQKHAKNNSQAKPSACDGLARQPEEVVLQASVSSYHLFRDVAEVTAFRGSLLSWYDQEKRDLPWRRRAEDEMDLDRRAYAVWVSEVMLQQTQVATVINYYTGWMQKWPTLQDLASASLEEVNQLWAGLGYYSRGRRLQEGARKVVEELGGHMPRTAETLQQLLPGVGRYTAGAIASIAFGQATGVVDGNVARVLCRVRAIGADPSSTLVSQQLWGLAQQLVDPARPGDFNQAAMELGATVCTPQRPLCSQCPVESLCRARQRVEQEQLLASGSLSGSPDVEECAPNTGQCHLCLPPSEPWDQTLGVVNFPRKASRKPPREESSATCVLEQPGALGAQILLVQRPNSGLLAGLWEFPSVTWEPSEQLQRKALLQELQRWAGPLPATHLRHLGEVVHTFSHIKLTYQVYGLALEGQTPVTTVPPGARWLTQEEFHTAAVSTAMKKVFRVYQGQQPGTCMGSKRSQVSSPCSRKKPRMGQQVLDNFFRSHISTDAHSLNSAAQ

Variants of: B1
procedure_summary: 8OG:A repair function score (normalized; synonymous = 0, nonsense = -1) (normalized log-likelihood score); higher = more repair activity (WT-like);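 also: cells sorted at 72 h after reporter transfection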
test_parameters: with 8OG:A DNA repair reporter (GFP) in HEK-293 MUTYH KO cells
assay_metric: 8OG:A repair function score
Write no unit; give the number alone.

| variant_key | assay_result |
| --- | --- |
| E433S | 0.0139 |
| T476K | 0.024 |
| T436E | -0.16 |
| N307Y | -0.0923 |
| L432K | -0.608 |
| L268P | -0.285 |

## Input Bench note: what 8OG:A repair function score did P365D show?
## Output 0.00966

## Input R332S ?
## Output -0.0346
